Provenance of the data: PubChem BioAssay (NCI)

- protocol.summary: NCI Yeast Anticancer Drug Screen. Data for the CLN2oe strain (AID 163);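 note: 0% = growth of vehicle-only control cultures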
- study.conditions: S. cerevisiae CLN2oe strain, at 33.0 µM
The panel holds about 79,000 compounds, 15% with a hit somewhere; the sample as a whole holds those more often. Activity calls are given as the source filed them. Cut-off read from the data, not from the text of the source: active = growth inhibition above about 70%; inactive = the rest.
Hi there, use one of these labels in your reply, thanks! active, inactive

A selection of reference data follows.
O=C(Nc1ccc2c(c1)Cc1c-2ccc([N+](=O)[O-])c1F)C(F)(F)F: inactive
O=C(/C=N/O)Nc1cc(Cl)c(Cl)cc1Cl: inactive
COc1cc(NCc2ccc3nc(N)nc(N)c3c2C)cc(OC)c1OC: inactive
CC1(C)C(C=O)=CCC1CC(N)=O (configuration not stated): inactive
OC(CN1CCCCC1)c1cc(Cl)c(Cl)c(Cl)c1 (configuration not stated): inactive

// query Kindly provide the recorded test outcome for the following compound: `O=C(O)c1[nH]c(=O)c2ccccc2c1Nc1ccccc1`
// result inactive

// query Kindly provide the recorded test outcome for the following compound: `COc1cc(/C=C/c2sc3ccccc3[n+]2C)ccc1N(C)C`
// result inactive

====

- protocol.summary: NCI Yeast Anticancer Drug Screen. Data for the mlh1 strain (AID 171);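 note: 0% = growth of vehicle-treated control cultures of the same strain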
- study.conditions: S. cerevisiae mlh1 strain growth inhibition; at 11.0 µM; hits give high values
The panel holds about 79,000 compounds, 15% with a hit somewhere; the sample as a whole holds those more often.
value.type: growth inhibition (%)
Numbers only, in %.

The examples below pair each entry with its known result.
Cc1ccc2occ/c(=N\Nc3ccccc3)c2c1: -1
Nc1nc(F)nc2c1ncn2C1OC(COP(=O)(O)O)C(O)C1O (stereo not drawn): 5
Nc1ccc(S(=O)(=O)Nc2ccc(Nc3c4ccccc4nc4ccccc34)cc2)cc1: 23
O=C(O)c1cccc2cccc(-c3c4ccc(=O)cc-4oc4cc(O)ccc34)c12: 63
O=C1C=CC(=Nc2ccccc2)c2ccccc21: 20
CO[C@@]12[C@H](COC(N)=O)C3=C(C(=O)C(C)=C(N)C3=O)N1C[C@@H]1N[C@@H]12: 21

Can you give me growth inhibition for all of these, one by one?
1. ClCCn1c(CCl)nc2ccc(Cl)cc21
2. O=C(CNS(=O)(=O)Cc1ccccc1)NNc1ccccc1
3. CCCCCC(=O)c1ccc(O)cc1O
4. COc1cc(N)ccc1Nc1c2ccccc2nc2ccccc12
5. O=NN(CCCl)C(=O)NCCCl

// result
[-18, 5, 20, -16, -2]

Can you give me growth inhibition for all of these, one by one?
1. CN(Cc1cnc2nc(N)nc(N)c2n1)c1ccc(C(=O)NC(CCC(=O)O)C(=O)O)c2ccccc12 (stereo not drawn)
2. CC1=CC2C(C(C)C)CC1C1C(=O)OC(=O)C21 (stereo not drawn)
3. CC(=O)c1cc2c(Cl)cc(Cl)cc2oc1=O
4. CCCCCCCCCCCCCCCCNC(=O)/C(=C\c1ccc(Cl)c(Cl)c1)NC(=O)c1ccccc1
5. Cc1cc(O)c2c(c1O)C(=O)C13C(=C2O)C(=O)C2C(O)C1C1C(O)C3C(=O)C3=C(O)c4c(O)cc(C)c(O)c4C(=O)C321 (stereo not drawn)

// result
42
-6
-32
-3
43

Can you give me growth inhibition for all of these, one by one?
1. O=Cc1coc2ccccc2c1=O
2. Nc1nc(N)c2cc(Sc3ccc4ccccc4c3)ccc2n1
3. CCCCCCCCCCCCCCCCCCNC(=S)/N=C\C1=C(O)c2ccccc2C1=O

// result
1. 24
2. 79
3. -3

Can you give me growth inhibition for all of these, one by one?
1. Nc1cc(F)cc2c1-c1ccc(F)cc1C2
2. O=C1OC2C(O)COC2(OCc2c[nH]c3ccccc23)C1O (stereo not drawn) (tested in a mixture with another compound)
3. Oc1ccc(C=Nc2ccccc2O)cc1
4. COc1ccc(/C=C(\NC(=O)c2ccccc2)C(=O)NN(C)c2ccnc3cc(Cl)ccc23)cc1OC

// result
[-3, -2, 36, 6]

====

So I've got a bunch of compounds here, and I need their growth inhibition values.
- protocol.summary: NCI Yeast Anticancer Drug Screen. Data for the cln2 rad14 strain (AID 165);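 note: 0% = growth equal to vehicle treated cultures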
- study.conditions: S. cerevisiae cln2 rad14 strain, at 5.0 µM (retest, dose inferred, filed as 0.5), hits give high values
This is part of a sample that, as a whole, favours compounds with a hit. Of some 79,000 tested, about 15% had one in any assay.
Give bare numbers, in %.

The examples below pair each entry with its known result.
CC(C)c1[nH]nc(C(N)=O)c1N=NN(C)C: -55
O=C(N/N=C\c1c(Cl)cccc1Cl)N/N=C/c1c(Cl)cccc1Cl: 49
COC(=O)c1ccc2c(c1)Cc1ccccc1-2: 35
O=C(/C=C/c1cccc2ccccc12)c1ccc(Cl)cc1: 28
CC1C(C#N)(C#N)C(C#N)=C(N)C1(Cl)[N+](=O)[O-] (configuration not stated): -5

Can you give me growth inhibition for all of these, one by one?
1. O=S1(=O)c2ccccc2N=C(c2ccccc2Cl)CC1c1ccc(F)cc1 (configuration not stated)
2. CCCc1[nH]nc(C(N)=O)c1N=NN(C)C
3. Cc1cc(OCc2ccccc2)ccc1[N+](=O)[O-]

// result
17
-59
40

Can you give me growth inhibition for all of these, one by one?
1. Cc1ccc(CNc2ccc(Br)cc2)cc1
2. C=C(CCCO)[C@@H]1CC[C@@](C)(O)[C@H]1C
3. O=C(NCCCCCN1CCC2(CCCCC2)CC1)C(C1CCCCC1)C1CCCCC1
4. CCC(=O)N(c1ccccc1)C(C)CN1CCC(O)(c2cccc(C(F)(F)F)c2)CC1 (configuration not stated)

// result
[61, 46, 70, 7]

====

So I've got a bunch of molecules here, and I need their growth inhibition values.
- protocol.summary: NCI Yeast Anticancer Drug Screen. Data for the sgs1 strain (AID 173);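 note: 0% = growth of vehicle-only control cultures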
- study.conditions: S. cerevisiae sgs1 mutant, at 3.7 µM, hits give high values
About 79,000 compounds went through this panel and 15% of them were active in at least one assay; those are over-represented in the sample as a whole.
One number for each entry, in %.

The examples below pair each entry with its known result.
N#C/C(=C/c1c(Cl)cccc1Cl)C(N)=O: 9
CSc1s[s+]c(SC)c1-c1ccccc1: -29
CC(C)c1cccc(O)c(=O)c1: -11
CC(=O)[O-].O=C([CH-]C(=O)c1ccccc1)c1ccccc1.O=C([CH-]C(=O)c1ccccc1)c1ccccc1.[Sm+3]: 7

Could you now consider this next molecule?
// sample `O=[N+]([O-])c1c(/C=N/Nc2ccccc2)oc(-c2ccc3c(c2)OCO3)c1-c1ccc2c(c1)OCO2` , its growth inhibition was -2

====

- protocol.summary: NCI Yeast Anticancer Drug Screen. Data for the rad50 strain (AID 155);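 note: 0% = growth of vehicle-only cultures of the same strain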
- study.conditions: S. cerevisiae rad50 strain growth inhibition; at 1.2 µM; hits give high values
- Description: Growth inhibition of yeast strains with defined genetic alterations is measured as a screen for potential anti-cancer activity. Selected strains with alterations in DNA damage repair or cell cycle control were exposed to compounds and growth inhibition was measured relative to vehicle treated controls. The strain used in this assay is rad50
The panel holds about 79,000 compounds, 15% with a hit somewhere; the sample as a whole holds those more often. The source made the active and inactive calls. Rule as the data show it: active = growth inhibition above about 70%; inactive = the rest.
value.type: growth inhibition

The examples below pair each entry with its known result.
S=c1[nH]c2c(Cl)c(Cl)c(Cl)c(Cl)c2[nH]1: -5% (inactive)
CC1=CC2C(C(C)C)CC1C1C(=O)OC(=O)C21 (stereo unspecified): -13% (inactive)

Can you give me growth inhibition for all of these, one by one?
1. Nc1cc(F)cc2c1-c1ccc(F)cc1C2
2. CCCCCCCCCCCc1nc(N)n[nH]1

// result
6% (inactive)
-11% (inactive)

Can you give me growth inhibition for all of these, one by one?
1. O=C(CCc1ccccc1)ON1C(=S)C(c2ccccc2)(c2ccccc2)N=C1Sc1ccccc1
2. O=c1[nH]cc(/C=N\Nc2ccccc2)c(=O)[nH]1

// result
1. 36% (inactive)
2. 3% (inactive)

====

- protocol.summary: NCI Yeast Anticancer Drug Screen. Data for the rad52 strain (AID 147);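 note: 0% = growth of vehicle-treated control cultures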
- study.conditions: S. cerevisiae rad52 mutant growth inhibition; at 1.2 µM; hits give high values
This is part of a sample that, as a whole, favours compounds with a hit. Of some 79,000 tested, about 15% had one in any assay.
Parameter threshold = 20%. Response is label 1 when growth inhibition meets or exceeds it, else label 0.

A selection of reference data follows.
Cc1cc(O)c2c(c1O)C(=O)C13C(=C2O)C(=O)C2C(O)C1C1C(O)C3C(=O)C3=C(O)c4c(O)cc(C)c(O)c4C(=O)C321 (stereo not given): label 1
Cn1c2nc3ccccc3c-2nc2ccccc21: label 1
CC(=O)N1C(=O)/C(=C\C(=O)c2ccc(Cl)cc2)c2ccccc21: label 0
O=C1C=CC(=O)N1c1ccc(N2C(=O)C=CC2=O)cc1: label 1
COC(=O)c1cccc(C)c1C(=O)c1c(C)cc(C)cc1C: label 0

// query Given `COc1cc(N)ccc1Nc1c2ccccc2nc2ccccc12` , state whether its growth inhibition is at least 20%.
// result label 0

// query Given `N#CC(=C1C=CC(=NO)C=C1)c1ccccc1` , state whether its growth inhibition is at least 20%.
// result label 0
